Listed variants paired with reported protein stability index
B1: CLPTM1 (parent)
chain: LGCYAVYSLLYLEHKGWYSWVLSM

Variants of: B1
EXPERIMENTAL_DETAILS: protein stability index of a GFP-peptide fusion (GPS, HEK-293T) (PSI 1-6); higher = more stable;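 further: lentivirally expressed fusions sorted by FACS into six bins by GFP to DsRed ratio, PSI derived from sequencing read proportions per bin multiplied by bin number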
RUN_PARAMETERS: c terminus: a fixed tail appended
Please reply with the value in numeric form only.

Examples with answers:
[[record]]
record_sequence = "LGCYAVYSNLYLEHKGWYSWVLSM"
recorded_metric = "protein stability index"
recorded_value = 3.39

[[record]]
record_sequence = "LGCYAVYSLLYLEHKGWYSWVLSK"
recorded_metric = "protein stability index"
recorded_value = 3.6

[[record]]
record_sequence = "LGCYAVPSLLYLEHKGWYSWVLSM"
recorded_metric = "protein stability index"
recorded_value = 3.71

[[record]]
record_sequence = "LGCYASYSLLYLEHKGWYSWVLSM"
recorded_metric = "protein stability index"
recorded_value = 2.76


# protein stability index lookup, item LGCYAVYSLLYLEHKGAYSWVLSM
3.3

Let us now turn to LGCYAGYSLLYLEHKGWYSWVLSM
2.72

Let us now turn to LGCYAVYSLLYLEHKGWYSWVISM
3.34
